target: GABA transporter (Mus musculus) (UniProt P31650+P31651+P31649+P31648); assay: Dose that protected 50% of the mice against seizures induced by intraperitoneally administered DMCM (15 mg/Kg) 30 min after intraperitoneal administration; format: functional, organism-based
We label by threshold. Values of ED50 strictly beneath 2 mg/kg are class 1. Values of 2 mg/kg and up are class 0.

Example results:
[[record]]
chemical_smiles = "Cc1ccccc1/C(=C/OCCN1CCC=C(C(=O)O)C1)c1ccccc1F"
classification = "class 1"

[[record]]
chemical_smiles = "Cc1cc(Cl)ccc1/C(=N\\OCCN1CCC[C@@H](C(=O)O)C1)c1sccc1C"
classification = "class 1"

[[record]]
chemical_smiles = "Cc1ccccc1/C(=N/OCCN1CCC[C@@H](C(=O)O)C1)c1ccccc1F.Cl"
classification = "class 0"

[[record]]
chemical_smiles = "Cc1cc(F)ccc1C(=COCCN1CCC=C(C(=O)O)C1)c1ccc(F)cc1C"
classification = "class 0"


(Q) hey, is ED50 for `O=C(O)[C@@H]1CCCN(CCO/C=C(\c2ccccc2)c2ccccc2Cl)C1` lower than 2 mg/kg or not?
(A) class 0

====

target: GABA transporter (Mus musculus) (UniProt P31650+P31651+P31649+P31648); experiment: Dose that protected 50% of the mice against seizures induced by intraperitoneally administered DMCM (15 mg/Kg) 30 min after intraperitoneal administration; type: functional, organism-based
Here, each record is paired with measured ED50 data.
Respond with the bare value in mg/kg.

[[record]]
compound = "Cl.O=C(O)C1=CCCN(CCOC(c2ccc(C(F)(F)F)cc2)c2ccc(C(F)(F)F)cc2)C1"
result = 2.1

[[record]]
compound = "Cc1ccccc1/C(=C\\OCCN1CCC[C@@H](C(=O)O)C1)c1cccc(F)c1"
result = 1.6

[[record]]
compound = "O=C(O)[C@@H]1CCCN(CCOC=C(c2ccccc2)c2ccccc2)C1"
result = 1.5


(Q) Consider the compound shown here: Cc1ccccc1/C(=N/OCCN1CCC[C@@H](C(=O)O)C1)c1sccc1C (stereo in doubt; 40) What is its recorded ED50?
(A) 2.5

(Q) Find the recorded ED50 belonging to `COc1cccc(/C(=C\OCCN2CCC[C@@H](C(=O)O)C2)c2ccccc2C)c1` and report it.
(A) 1.6

(Q) Which ED50 is reported for this compound? `Cl.O=C(O)[C@@H]1CCCN(CCON=C(c2ccc(F)cc2Cl)c2ccc(F)cc2Cl)C1`
(A) 1.3

(Q) Look at this compound and give its reported ED50. `Cc1ccsc1C(=COCCN1CCC[C@@H](C(=O)O)C1)c1sccc1C`
(A) 0.6

(Q) Would you mind telling me what ED50 value was observed for `Cl.O=C(O)[C@@H]1CCCN(CCON=C(c2ccc(F)cc2F)c2ccc(F)cc2F)C1` ?
(A) 0.7

(Q) Which measured ED50 value corresponds to `O=C(O)[C@H]1CCCN(CCON=C(c2ccccc2)c2ccccc2)C1` ?
(A) 4.8

(Q) Item under review: `Cl.O=C(O)C1=CCCN(CCON=C(c2ccccc2)c2ccccc2)C1` . Reported ED50?
(A) 1.6

(Q) Endpoint output: ED50 of `Cc1ccccc1/C(=N/OCCN1CCC=C(C(=O)O)C1)c1cccc(Cl)c1.Cl` . Value?
(A) 1.8

(Q) Fill in: ED50 of `Cc1csc(/C(=N/OCCN2CCC[C@@H](C(=O)O)C2)c2ccccc2C)c1.Cl` is ___
(A) 5.5

(Q) Any idea what its ED50 is? The compound is `Cc1csc(/C(=N/OCCN2CCC[C@H](C(=O)O)C2)c2ccccc2C)c1`
(A) 18

(Q) // returns reported ED50 for input `Cc1ccsc1C(=NOCCN1CCC[C@H](C(=O)O)C1)c1sccc1C`
(A) 3.6

(Q) Entry O=C(O)C1CCCN(CCC=C(c2ccccc2)c2ccccc2)C1 (stereo not given) has what ED50?
(A) 3.1

(Q) Tell me the measured ED50 of `Cl.O=C(O)[C@@H]1CCCN(CCO/N=C(\c2cccc(F)c2)c2ccccc2F)C1` , please.
(A) 3

(Q) Quick one: ED50 of `O=C(O)[C@@H]1CCCN(CCO/C=C(/c2ccccc2)c2ccccc2Cl)C1` ?
(A) 0.7

(Q) I have this compound here, `Cl.O=C(O)[C@@H]1CCCN(CCON=C(c2ccccc2Cl)c2ccccc2Cl)C1` , and I need its recorded ED50.
(A) 3.9

(Q) Look at this compound and give its reported ED50. `Cc1ccccc1C(=COCCN1CCC[C@@H](C(=O)O)C1)c1ccccc1C`
(A) 0.8

(Q) ED50 for `Cc1ccccc1C(=COCCN1CCC=C(C(=O)O)C1)c1ccccc1C` ?
(A) 0.6
